Reported values of LD50 for individual entries
assay: in vivo; conditions: mouse, po
Express the result in mg/kg but write the number alone.

In the examples that follow, each entry is paired with its recorded LD50.
Incoming: State the recorded LD50 for this entry: CSC(C)=NOC(=O)N(C)[S+]([O-])Sc1ccccc1 (stereo not drawn)
Outgoing: 150

Incoming: And CSC(C)=NOC(=O)N(C)[S+]([O-])SC(C)(C)C (stereo not drawn) ?
Outgoing: 135

Incoming: And Cc1cc(C(C)(C)C)ccc1S[S+]([O-])N(C)C(=O)Oc1cccc(C(C)C)c1 (stereo not drawn) ?
Outgoing: 450

Incoming: And CC(C)c1cccc(OC(=O)N(C)[S+]([O-])SC(C)(C)C)c1 (stereo not drawn) ?
Outgoing: 250

Incoming: And Cc1cc(C(C)(C)C)ccc1S[S+]([O-])N(C)C(=O)Oc1cccc2c1OC(C)(C)C2 (stereo not drawn) ?
Outgoing: 70

Others:
Incoming: State the recorded LD50 for this entry: CN(C(=O)Oc1cccc2c1OC(C)(C)C2)[S+]([O-])SC(C)(C)C (stereo not drawn)
Outgoing: 70

Incoming: And CCCCS[S+]([O-])N(C)C(=O)Oc1cccc2c1OC(C)(C)C2 (stereo not drawn) ?
Outgoing: 45

Incoming: And CN(C(=O)Oc1cccc2c1OC(C)(C)C2)[S+]([O-])Sc1ccccc1 (stereo not drawn) ?
Outgoing: 32

Incoming: And CCCCS[S+]([O-])N(C)C(=O)Oc1ccccc1OC(C)C (stereo not drawn) ?
Outgoing: 1050

Incoming: And CNC(=O)Oc1ccccc1OC(C)C [2-isopropoxyphenyl methylcarbamate, reference compound] ?
Outgoing: 60

Incoming: And CN(C(=O)Oc1cccc2c1OC(C)(C)C2)[S+]([O-])Sc1ccc(C(C)(C)C)cc1 (stereo not drawn) ?
Outgoing: 92

Data provenance: patent US4262015A
